Test system: Surinam grass (Brachiaria decumbens)
Assay: Test B pre/postemergence
Assay type: in vivo
Conditions: Postemergence, 62 g ai/ha; scale 0 to 100 (0 no effect, 100 complete control)
endpoint: Surinam Grass plant response rating

Would you please look over these solved cases?
- molecule: "Nc1nc(C2CC2)nc(C(=O)O)c1Cl"
  Surinam Grass plant response rating: 80
- molecule: "CCOC(=O)C(Cl)c1nc(C2CC2)nc(N)c1Br (stereo not shown)"
  Surinam Grass plant response rating: 0
- molecule: "Nc1nc(-c2ccc(Br)cc2)nc(C(=O)O)c1Br"
  Surinam Grass plant response rating: 70

Please examine the following record next.
Looking for the measured Surinam Grass plant response rating of `CCOC(=O)c1nc(-c2ccc(I)cc2)nc(N)c1Cl` , can you help?
60

* * *

Entries annotated with measured Plant response rating, Rice
Test system: rice (Oryza sativa)
Experiment: Test C flooded paddy test
Assay type: in vivo
Conditions: Flood, 250 g ai/ha; scale 0 to 100

Would you please look over these solved cases?
- smiles.entry: "CCOC(=O)c1nc(C2CC2)nc(N)c1Br"
  assay.target: "rice (Oryza sativa)"
  Plant response rating, Rice: 0
- smiles.entry: "Nc1nc(C2CC2)nc(C=O)c1Br"
  assay.target: "rice (Oryza sativa)"
  Plant response rating, Rice: 20
- smiles.entry: "COC(=O)c1nc(C2CC2)nc(N)c1Cl"
  assay.target: "rice (Oryza sativa)"
  Plant response rating, Rice: 55

Name the recorded Plant response rating, Rice for `CCCCOC(=O)c1nc(C2CC2)nc(N)c1Br` .
0

* * *

System: blackgrass (Alopecurus myosuroides)
Experiment: Test B postemergence
Format: in vivo
Conditions: 500 g ai/ha, scale 0 to 100
Procedure: […] At the same time, plants selected from these crop and weed species and also blackgrass (Alopecurus myosuroides) and wild oat (Avena fatua) were treated with postemergence applications of test chemicals formulated in the same manner. […] Treated plants and controls were maintained in a greenhouse for 13 to 15 days, after which time all species were compared to controls and visually evaluated. […]
endpoint: Plant response rating, Blackgrass
Response field accepts a number only; no unit should be typed.

- molecule: "CC=NNc1nc(C2CC2)nc(C(=O)OC)c1Br"
  endpoint: "Plant response rating, Blackgrass"
  observed: 40
- molecule: "CC(=O)NN=Cc1nc(C2CC2)nc(N)c1Br"
  endpoint: "Plant response rating, Blackgrass"
  observed: 30
- molecule: "CCOC(=O)c1nc(C2CC2)nc(NOC(C)(C)C)c1Br"
  endpoint: "Plant response rating, Blackgrass"
  observed: 40
- molecule: "COC(OC)c1nc(C2CC2)nc(N)c1F"
  endpoint: "Plant response rating, Blackgrass"
  observed: 10
- molecule: "CC(C)COC(=O)c1nc(C2CC2)nc(N)c1Br"
  endpoint: "Plant response rating, Blackgrass"
  observed: 70
- molecule: "COC(=O)c1nc(-c2ccc(C(F)(F)F)cc2)nc(N)c1Cl"
  endpoint: "Plant response rating, Blackgrass"
  observed: 40

Please look up its Plant response rating, Blackgrass: CCOC(=O)C(OC(C)=O)c1nc(C2CC2)nc(N)c1Br (centres unmarked)
0

Value lookup for Plant response rating, Blackgrass; key = `CCOC(=O)c1nc(C2CC2)nc(NCCOC)c1Br`
0

* * *

Test system: purple redstem (Ammannia coccinea)
Assay: Test E flooded paddy water application
Assay type: in vivo
Details: 250 g ai/ha; Flood; 21 days; scale 0 to 100 (0 no effect, 100 complete control)
The following compounds are listed with their measured Redstem plant response rating values.
Lab note: jot the number down without any unit.

Recorded Redstem plant response rating for `Nc1nc(-c2ccc(Cl)cc2)nc(C(=O)[O-])c1Cl.[Na+]` , please?
30

Which value of Redstem plant response rating has been reported for `Nc1nc(-c2ccc(Cl)cc2)nc(C(=O)O)c1Cl` in the records?
60

What Redstem plant response rating value was documented for this compound, `COC(=O)c1nc(-c2ccc(I)cc2)nc(N)c1Br` ?
90

Need Redstem plant response rating, item `CCOC(=O)c1nc(-c2ccc(Br)cc2)nc(N)c1Cl`
100

// returns reported Redstem plant response rating for input `COC(=O)c1nc(-c2ccc(Br)cc2)nc(N)c1Br`
95

Quick one: Redstem plant response rating of `CCOC(=O)c1nc(-c2ccc(Cl)cc2F)nc(N)c1Br` ?
30
